- measured.target: 5-hydroxytryptamine receptor 2B (Homo sapiens)
- Sequence (P41595 whole entry): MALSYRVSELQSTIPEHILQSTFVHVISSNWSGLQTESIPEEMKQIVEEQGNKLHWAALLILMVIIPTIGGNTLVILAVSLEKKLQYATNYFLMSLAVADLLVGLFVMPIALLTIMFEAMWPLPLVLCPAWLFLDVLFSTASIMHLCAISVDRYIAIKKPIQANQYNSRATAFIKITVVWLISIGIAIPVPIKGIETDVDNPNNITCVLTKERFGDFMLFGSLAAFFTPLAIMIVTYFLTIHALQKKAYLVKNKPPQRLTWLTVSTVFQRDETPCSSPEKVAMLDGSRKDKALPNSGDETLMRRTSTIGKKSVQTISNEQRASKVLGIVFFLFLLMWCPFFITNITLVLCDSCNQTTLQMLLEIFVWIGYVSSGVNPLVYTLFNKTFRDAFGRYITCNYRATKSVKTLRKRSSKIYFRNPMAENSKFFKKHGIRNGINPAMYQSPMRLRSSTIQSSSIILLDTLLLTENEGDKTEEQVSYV
- assay.details: Displacement of [125I]+/-DOI from human recombinant 5-HT2B receptor after 60 mins by scintillation counting analysis
measurement.type: pIC50
For clarity, pIC50 is expressed as the negative log10 of concentration in mol/L.

Any idea what its pIC50 is? The compound is CC(C)(C)NS(=O)(=O)c1ccc(-c2sc(C(=O)N[C@H]3C[C@H](C(=O)O)C3)nc2CC2CCCCC2)c2ccccc12 8.49

====

- measured.target: Neuropeptide Y receptor type 2 (Homo sapiens, UniProt P49146)
- Sequence (P49146 whole entry): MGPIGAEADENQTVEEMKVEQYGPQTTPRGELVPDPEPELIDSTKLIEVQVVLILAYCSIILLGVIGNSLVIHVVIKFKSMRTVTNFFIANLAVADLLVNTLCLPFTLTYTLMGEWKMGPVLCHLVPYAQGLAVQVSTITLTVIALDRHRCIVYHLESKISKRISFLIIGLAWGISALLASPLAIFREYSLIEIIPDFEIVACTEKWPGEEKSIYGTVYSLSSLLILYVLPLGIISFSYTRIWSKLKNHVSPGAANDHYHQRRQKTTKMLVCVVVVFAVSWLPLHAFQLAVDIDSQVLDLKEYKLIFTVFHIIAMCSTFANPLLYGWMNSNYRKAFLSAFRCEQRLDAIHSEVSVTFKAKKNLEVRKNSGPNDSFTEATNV
measurement.type: IC50 (nM)
Respond with the bare value in nM.

For CC(C)(C)NS(=O)(=O)c1ccc(-c2sc(C(=O)N[C@H]3C[C@H](C(=O)O)C3)nc2CC2CCCCC2)c2ccccc12 , what is its reported IC50? 0.28

====

Catalogue of Emax at 16 h, 10 µM values
- measured.target: PXR (NR1I2) (Homo sapiens, UniProt O75469)
- Sequence (O75469 whole entry, the tested form may be a part): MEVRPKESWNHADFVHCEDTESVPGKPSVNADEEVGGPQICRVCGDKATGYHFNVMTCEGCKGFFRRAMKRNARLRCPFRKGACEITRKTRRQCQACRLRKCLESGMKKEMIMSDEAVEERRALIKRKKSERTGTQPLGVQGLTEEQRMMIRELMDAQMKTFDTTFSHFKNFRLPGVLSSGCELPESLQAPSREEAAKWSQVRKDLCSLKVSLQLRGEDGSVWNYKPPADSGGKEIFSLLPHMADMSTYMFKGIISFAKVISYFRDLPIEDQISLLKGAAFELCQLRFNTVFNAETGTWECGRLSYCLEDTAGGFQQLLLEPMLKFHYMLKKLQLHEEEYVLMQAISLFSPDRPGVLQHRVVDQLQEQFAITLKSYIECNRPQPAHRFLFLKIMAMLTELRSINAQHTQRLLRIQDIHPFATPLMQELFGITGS
- assay.details: […] at PXR LBD (unknown origin) expressed in HEK293 cells […] at 10 uM after 16 hrs by luciferase reporter gene assay relative to rifampicin
- Format: ADME, cell-based
- condition.context: HEK293 cells expressing PXR LBD, read-out: Efficacy
Answer with a number only, understood to be in %.

Below, each entry is followed by its recorded Emax at 16 h, 10 µM result.
| smiles.code | unit | reported.result |
| --- | --- | --- |
| Cc1c(S(=O)(=O)NC(C)(C)C)ccc(-c2sc(C(=O)N[C@H]3C[C@H](C(=O)O)C3)nc2CC2CCCCC2)c1OC(F)F | % | 173 |
| CC(C)(O)CNC(=O)c1nc(CC2CCCCC2)c(-c2ccc(S(=O)(=O)NC3(C#N)CC3)c3ccccc23)s1 | % | 167 |

Which Emax at 16 h, 10 µM is reported for this compound? CCC(C)(C)NS(=O)(=O)c1ccc(-c2sc(C(=O)N[C@H]3C[C@H](C(=O)O)C3)nc2CC2CCCCC2)c(Cl)c1C 34

What would you report for CC(C)(C)NS(=O)(=O)c1ccc(-c2sc(C(=O)NC3CCOCC3)nc2CC2CCCCC2)c2ccccc12 ? 206

Entry to check: CC(C)(C)NS(=O)(=O)c1ccc(-c2sc(C(=O)N[C@H]3C[C@H](C(=O)O)C3)nc2CC2CCCCC2)c2c1CCCC2 20

Now consider CC(C)(C)NS(=O)(=O)c1ccc(-c2sc(C(=O)N3CC4(C3)CS(=O)(=O)C4)nc2CC2CCCCC2)c(Cl)c1Cl . 160

Same thing, different compound: CC(C)(C)NS(=O)(=O)c1ccc(-c2sc(C(=O)N3CC4(CCS(=O)(=O)CC4)C3)nc2CC2CCCCC2)c2ccccc12 128
